inhibition: recorded values
molecular target: Potassium voltage-gated channel subfamily A member 5 (Homo sapiens) (UniProt P22460); assay: Inhibition of Kv1.5 ion channel expressed in HEK293 cells at 10 uM by FLIPR assay; assay type: cell-based
Sequence (P22460 whole entry): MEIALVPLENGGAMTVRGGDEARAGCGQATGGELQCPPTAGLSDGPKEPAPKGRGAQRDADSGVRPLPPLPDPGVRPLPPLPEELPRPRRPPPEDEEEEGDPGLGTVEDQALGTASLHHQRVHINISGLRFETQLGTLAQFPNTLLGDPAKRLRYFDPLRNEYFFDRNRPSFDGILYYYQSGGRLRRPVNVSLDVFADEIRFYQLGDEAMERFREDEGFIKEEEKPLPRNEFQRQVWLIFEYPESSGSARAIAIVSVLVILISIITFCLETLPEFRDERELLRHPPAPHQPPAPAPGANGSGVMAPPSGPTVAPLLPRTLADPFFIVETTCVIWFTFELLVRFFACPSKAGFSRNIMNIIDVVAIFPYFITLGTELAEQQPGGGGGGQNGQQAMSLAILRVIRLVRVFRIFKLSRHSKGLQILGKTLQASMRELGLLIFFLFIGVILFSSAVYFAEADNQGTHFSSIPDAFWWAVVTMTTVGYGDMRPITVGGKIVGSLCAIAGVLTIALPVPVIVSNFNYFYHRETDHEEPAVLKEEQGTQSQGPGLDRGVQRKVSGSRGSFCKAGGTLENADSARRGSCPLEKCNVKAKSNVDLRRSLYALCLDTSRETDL
QUANTITY: inhibition (%)

>>> endpoint_result("O=C(c1cccc(NS(=O)(=O)c2ccccn2)c1)N1CCN(c2nc3ccc(Cl)cc3s2)CC1")
75.1
>>> endpoint_result("O=C(c1ccccc1NS(=O)(=O)c1ccccn1)N1CCN(c2nc3ccc(Br)cc3s2)CC1")
100
>>> endpoint_result("O=C(c1ccc(NS(=O)(=O)c2ccccn2)cc1)N1CCN(c2nc3ccc(F)cc3s2)CC1")
100
>>> endpoint_result("O=S(=O)(Nc1ccccc1OC1CCN(c2nc3ccc(Br)cc3s2)CC1)c1ccccn1")
100
>>> endpoint_result("O=S(=O)(Nc1ccccc1OCC1CCN(c2nc3ccccc3s2)C1)c1ccccn1 (stereo not given)")
76

Values from ChEMBL document CHEMBL2146471
